# Assay: Equilibrium solubility acquired at 24 hours
# Type: physicochemical
# Experimental Setup: organic solvent or mixture, thermodynamic from solid, ACN
Property: solubility at 24 h (µg/mL)
Report the figure in µg/mL without appending any unit label.

Prompt: Requested field: solubility at 24 h. Item: `CC(C)(c1ccc(OCc2ccnc(NS(C)(=O)=O)n2)cc1)c1cc(Cl)c(OCCCl)c(C#N)c1`
Completion: 2040

====

# Assay: Approximate solubility by solvent aliquot addition, visual inspection
# Assay type: physicochemical
# Experimental Setup: organic solvent or mixture, thermodynamic from solid; p-dioxane, from observations on samples at much larger scales; read-out: Approximate solubility
Property: solubility

Prompt: Find the recorded solubility belonging to `CC(C)(c1ccc(OCc2ccnc(NS(C)(=O)=O)n2)cc1)c1cc(Cl)c(OCCCl)c(C#N)c1` and report it.
Completion: 35 to 103 mg/mL

====

# Assay: Approximate solubility by solvent aliquot addition, visual inspection
# Type: physicochemical
# Experimental Setup: dioxane (printed 'dioxant'), organic solvent or mixture, thermodynamic from solid; dioxant, ambient temperature; read-out: Solubility
Property: solubility

Prompt: Value lookup for solubility; key = CC(C)(c1ccc(OCc2ccnc(NS(C)(=O)=O)n2)cc1)c1cc(Cl)c(OCCCl)c(C#N)c1 [Compound I]
Completion: > 107 mg/mL

====

# Assay: Approximate solubility by solvent aliquot addition, visual inspection
# Assay type: physicochemical
# Experimental Setup: organic solvent or mixture, thermodynamic from solid; Et2O, ambient temperature; read-out: Solubility
Property: solubility

Prompt: Entry under review: CC(C)(c1ccc(OCc2ccnc(NS(C)(=O)=O)n2)cc1)c1cc(Cl)c(OCCCl)c(C#N)c1 [Compound I] . Reported solubility?
Completion: < 2000 µg/mL

====

# Assay: Amorphous solubility by slow addition from organic stock into aqueous media (UV/Vis scattering, DLS)
# Type: physicochemical
# Experimental Setup: phosphate-buffered saline, aqueous buffer, kinetic from dmso stock; pH 6.5 PBS
# Excerpt: Solubility: Generally, the solubility of an amorphous form is higher than that of the corresponding crystal form, due to the lack of crystalline lattice forces in the amorphous state. […] When the amorphous solubility is reached, a drug-rich phase forms which typically scatters light (e.g., liquid-liquid phase separation or LLPS), which can be detected by scattering of UV/Visible light and/or by dynamic light scattering (DLS). […]
Property: solubility

Prompt: # input molecule: CC(C)(c1ccc(OCc2ccnc(NS(C)(=O)=O)n2)cc1)c1cc(Cl)c(OCCCl)c(C#N)c1 [amorphous form of Compound I] ; wanted: its solubility
Completion: > 2.5 µg/mL

====

# Assay: Equilibrium solubility acquired at 24 hours
# Format: physicochemical
# Experimental Setup: organic solvent or mixture, thermodynamic from solid, acetone
Property: solubility at 24 h (µg/mL)
Record the value in µg/mL, omitting the unit from your answer.

Prompt: Endpoint output: solubility at 24 h of CC(C)(c1ccc(OCc2ccnc(NS(C)(=O)=O)n2)cc1)c1cc(Cl)c(OCCCl)c(C#N)c1 [Compound I] . Value?
Completion: 5300

====

# Assay: Approximate solubility by solvent aliquot addition, visual inspection
# Type: physicochemical
# Experimental Setup: organic solvent or mixture, thermodynamic from solid; NMP, ambient temperature; read-out: Solubility
Property: solubility

Prompt: Give the measured solubility of `CC(C)(c1ccc(OCc2ccnc(NS(C)(=O)=O)n2)cc1)c1cc(Cl)c(OCCCl)c(C#N)c1` .
Completion: > 117 mg/mL

Data origin: patent US11518747B2
